# tested system: STK25 (human) (UniProt O00506)
# Sequence (O00506 whole entry, looked up): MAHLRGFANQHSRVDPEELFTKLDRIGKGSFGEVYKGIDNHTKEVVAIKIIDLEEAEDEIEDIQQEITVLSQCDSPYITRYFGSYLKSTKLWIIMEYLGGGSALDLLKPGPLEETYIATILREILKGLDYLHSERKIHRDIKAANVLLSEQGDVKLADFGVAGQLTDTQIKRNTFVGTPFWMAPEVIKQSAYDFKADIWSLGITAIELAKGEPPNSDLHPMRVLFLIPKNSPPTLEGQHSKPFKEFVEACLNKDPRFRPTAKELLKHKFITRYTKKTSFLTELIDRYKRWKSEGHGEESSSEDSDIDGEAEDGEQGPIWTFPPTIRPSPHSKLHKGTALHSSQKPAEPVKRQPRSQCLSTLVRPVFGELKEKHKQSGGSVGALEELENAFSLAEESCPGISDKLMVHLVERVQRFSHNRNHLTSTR
# assay comment: radiometric filter-binding kinase assay, Kinase HotSpot
# settings: compound 0.5 µM; ATP 10 µM
endpoint name: residual activity (%)

• Nc1ncnc2c1cnn2-c1ccccc1 = 93.2
• COc1cc2ncnc(Nc3ccc(O)c(Br)c3)c2cc1OC = 99.6
• O=c1c(-c2ccc(F)cc2)c(-c2ccncc2)[nH]n1-c1ccc(Cl)cc1 = 111
• O=c1[nH]c2ccccc2n1C1CCN(Cc2ccc(-c3nc4cc5[nH]cnc5cc4nc3-c3ccccc3)cc2)CC1 = 89.8
• COc1cc2c(Nc3ccc(Br)cc3F)ncnc2cc1OCC1CCN(C)CC1 = 99
• COc1cc2c(cc1OC)-c1[nH]nc(Nc3cccc(F)c3)c1C2 = 103
• CCc1nc(-c2ccc(OC)cc2)[nH]c1-c1ccncc1 = 116
• O=c1cc(N2CCOCC2)oc2c(-c3ccccc3)cccc12 = 116
• O=C1NC(=O)c2c1c1c3ccccc3[nH]c1c1[nH]c3cc(Br)ccc3c21 = 84.4
• N#Cc1c(NC(=O)c2cccc3ccccc23)sc2c1CCCC2 = 95.7
• N#CCCc1ccc2c(c1)-c1[nH]c3ccc([N+](=O)[O-])cc3c1CC(=O)N2 = 91.1
• N/C(=N\N=C/c1ccc(-c2cccc([N+](=O)[O-])c2)o1)N[N+](=O)[O-] = 86.3
• c1ccc(-c2cnc(Nc3ccc(OCCN4CCCC4)cc3)s2)cc1 = 95.5
• N#C/C(=C1/Nc2ccccc2S1)c1ccnc(NCCc2cccnc2)n1 = 97.7
• Cn1cc(/C=C2\C(=O)Nc3ccc(S(N)(=O)=O)cc32)c2ccccc21 = 83.5
• COc1cc2c(N3CCN(C(=O)Nc4ccc(OC(C)C)cc4)CC3)ncnc2cc1OCCCN1CCCCC1 = 93.4
• COc1cccc(-c2cc(=O)c3ccccc3o2)c1N = 106
• O=S(=O)(NCCNC/C=C/c1ccc(Br)cc1)c1cccc2cnccc12 = 104
• Cc1cc(Nc2nc(-c3ccccc3)nc3ccccc23)n[nH]1 = 86.7
• O=C(c1ccccc1)c1ccc(N2CCOCC2)cc1O = 100
• CCCCc1c(-c2ccc(O)cc2)[nH]c2nccnc12 = 91.4
• CCOc1cc2ncnc(Nc3cccc(Br)c3)c2cc1OCC = 90.1
• O=C1NC(=O)c2cc(Nc3ccc(F)cc3)c(Nc3ccc(F)cc3)cc21 = 101
• O=c1c2ccccc2[nH]c(=S)n1CCN1CCC(=C(c2ccc(F)cc2)c2ccc(F)cc2)CC1 = 96.6
• O=C(O)c1ccc2c3c1cccc3c(=O)n1c3ccccc3nc21 = 104
• FC(F)(F)c1ccc(/C=C/c2nc(COc3ccc(CCCCn4ccnn4)cc3)co2)cc1 = 91.8
